Just for reference, ChEMBL document CHEMBL1961873 is where these values come from.

target-system: Dual specificity protein kinase TTK (Homo sapiens)
run-parameters: at 0.1 µM
Description: GSK_PKIS: TTK mean inhibition at 0.1 uM [Nanosyn]
// inhibition lookup, one value per entry
Give just the number in %; leave the unit off.

Guide cases for inhibition, answers given:
substance-smiles: c1ccc(-c2nc3n(c2-c2ccc4c(c2)OCO4)CCC3)nc1
quantity-measured: inhibition
observed-value: 4.41

substance-smiles: Cc1ccc(O)cc1Nc1ccnc2cc(-c3ccccn3)ccc12
quantity-measured: inhibition
observed-value: 6.34

substance-smiles: CCn1c(-c2nonc2N)nc2cnc(Oc3cccc(NC(=O)c4ccc(N(C)C)cc4)c3)cc21
quantity-measured: inhibition
observed-value: 3.52

substance-smiles: CCn1c(-c2nonc2N)nc2c(C#CC(C)(C)O)ncc(OC3CCNCC3)c21
quantity-measured: inhibition
observed-value: 5.34

substance-smiles: COc1ccc(-c2cc(-c3c[nH]nc3-c3ccccn3)ccn2)cc1
quantity-measured: inhibition
observed-value: 13.4

Any idea what its inhibition is? The compound is "NC(=O)c1sc(-n2cnc3ccc(C(F)(F)F)cc32)cc1OCc1ccccc1Br"
8.68

Next: "COc1ccc(-c2nn3ncccc3c2-c2ccnc(Nc3ccc4c(c3)OCCO4)n2)cc1"
4.08

Next: "COc1ccc2c(-c3ccnc(Nc4cccc(OC(F)(F)F)c4)n3)cnn2n1"
5.81

Next: "Cc1cccc2c1NC(=O)/C2=N\Nc1ccc(S(N)(=O)=O)cc1"
1.78

Next: "COc1cc(Nc2nccc(Nc3ccc4c(C)n[nH]c4c3)n2)cc(OC)c1OC"
2.57
